Target: Metabotropic glutamate receptor 8 (Homo sapiens)
Sequence (O00222 whole entry): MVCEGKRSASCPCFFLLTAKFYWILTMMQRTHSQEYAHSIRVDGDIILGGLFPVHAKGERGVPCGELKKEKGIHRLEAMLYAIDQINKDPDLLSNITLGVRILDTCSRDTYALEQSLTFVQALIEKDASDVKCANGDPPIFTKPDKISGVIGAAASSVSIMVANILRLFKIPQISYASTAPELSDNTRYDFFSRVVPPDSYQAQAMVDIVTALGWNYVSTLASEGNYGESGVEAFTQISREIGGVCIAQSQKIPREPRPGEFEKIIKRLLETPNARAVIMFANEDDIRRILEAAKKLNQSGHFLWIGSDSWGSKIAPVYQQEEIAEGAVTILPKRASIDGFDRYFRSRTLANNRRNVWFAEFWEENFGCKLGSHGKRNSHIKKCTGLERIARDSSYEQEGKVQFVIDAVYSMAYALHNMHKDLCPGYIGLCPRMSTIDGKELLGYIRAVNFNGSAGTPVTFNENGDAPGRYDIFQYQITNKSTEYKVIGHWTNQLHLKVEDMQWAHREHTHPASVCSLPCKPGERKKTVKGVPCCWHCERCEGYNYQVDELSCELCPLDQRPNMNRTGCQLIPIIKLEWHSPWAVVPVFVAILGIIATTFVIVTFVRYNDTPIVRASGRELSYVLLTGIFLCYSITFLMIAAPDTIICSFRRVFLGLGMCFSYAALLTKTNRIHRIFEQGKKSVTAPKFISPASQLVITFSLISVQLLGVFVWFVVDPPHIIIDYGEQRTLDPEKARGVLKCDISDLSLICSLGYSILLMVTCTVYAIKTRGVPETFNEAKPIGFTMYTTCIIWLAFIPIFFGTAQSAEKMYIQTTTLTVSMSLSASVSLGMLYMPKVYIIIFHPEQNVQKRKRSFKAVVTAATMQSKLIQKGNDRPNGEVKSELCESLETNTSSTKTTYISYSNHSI
Assay: Agonist activity at human mGluR8 assessed as effect on cAMP production in RGT cells
Format: functional, cell-based
pEC50: −log10 of the molar value.
The entries below are paired with their reported pEC50.
recordedEndpoint: pEC50

• N[C@@]1(C(=O)O)CS(=O)(=O)[C@H]2[C@H](C(=O)O)[C@H]21 [LY404039] = 4.32
• N[C@@]1(C(=O)O)C[S+]([O-])[C@H]2[C@H](C(=O)O)[C@H]21 (stereo in doubt; (+)-11) = 5.51

----------
Assay: Plasma concentration in Fischer 344 rat after 1 hr
Format: ADME, organism-based
recordedEndpoint: concentration at 1 h (ng/mL)

- N[C@@]1(C(=O)O)CS(=O)(=O)[C@H]2[C@H](C(=O)O)[C@H]21 [LY404039]: 4000

----------
Reported values of pEC50 for individual entries
Biological target: Metabotropic glutamate receptor 3 (Homo sapiens, UniProt Q14832)
Sequence (Q14832 whole entry): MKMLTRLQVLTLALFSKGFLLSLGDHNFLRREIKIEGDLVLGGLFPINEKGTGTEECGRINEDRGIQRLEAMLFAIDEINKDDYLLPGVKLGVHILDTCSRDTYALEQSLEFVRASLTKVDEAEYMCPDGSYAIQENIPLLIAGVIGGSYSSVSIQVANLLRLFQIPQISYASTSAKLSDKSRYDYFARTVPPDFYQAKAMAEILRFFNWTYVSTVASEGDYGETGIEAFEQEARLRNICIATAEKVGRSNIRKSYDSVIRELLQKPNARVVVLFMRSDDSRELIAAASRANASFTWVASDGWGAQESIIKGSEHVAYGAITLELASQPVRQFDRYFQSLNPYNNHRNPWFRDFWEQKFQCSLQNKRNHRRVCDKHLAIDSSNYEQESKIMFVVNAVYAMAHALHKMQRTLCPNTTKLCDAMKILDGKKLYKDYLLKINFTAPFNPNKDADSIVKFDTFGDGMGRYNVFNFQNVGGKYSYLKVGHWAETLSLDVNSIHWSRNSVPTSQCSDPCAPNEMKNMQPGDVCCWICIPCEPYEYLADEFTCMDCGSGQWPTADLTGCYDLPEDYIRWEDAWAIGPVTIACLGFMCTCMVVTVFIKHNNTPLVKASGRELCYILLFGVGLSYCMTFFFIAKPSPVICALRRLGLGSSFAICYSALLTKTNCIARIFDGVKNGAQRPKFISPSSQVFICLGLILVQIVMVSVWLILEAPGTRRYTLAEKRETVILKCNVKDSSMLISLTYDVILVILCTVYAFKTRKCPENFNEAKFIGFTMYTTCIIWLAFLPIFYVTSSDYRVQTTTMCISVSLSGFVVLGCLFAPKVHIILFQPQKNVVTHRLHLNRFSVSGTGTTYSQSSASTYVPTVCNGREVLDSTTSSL
Test: Agonist activity at human mGluR3 assessed as effect on cAMP production in RGT cells
pEC50: −log10 of the molar value.
recordedEndpoint: pEC50

* N[C@@]1(C(=O)O)C[S+]([O-])[C@H]2[C@H](C(=O)O)[C@H]21 (stereo in doubt; (-)-10) | 6.68
* N[C@@]1(C(=O)O)CS(=O)(=O)[C@H]2[C@H](C(=O)O)[C@H]21 | 7.32
* N[C@@]1(C(=O)O)C[S+]([O-])[C@H]2[C@H](C(=O)O)[C@H]21 (stereo in doubt; (+)-11) | 8.85

----------
Experiment: Plasma concentration in Fischer 344 rat after 8 hrs
Assay type: ADME, organism-based
recordedEndpoint: concentration at 8 h

- N[C@@]1(C(=O)O)CS(=O)(=O)[C@H]2[C@H](C(=O)O)[C@H]21: < 10 ng/mL

----------
Test: Plasma concentration in Fischer 344 rat after 3 hrs
Format: ADME, organism-based
recordedEndpoint: concentration at 3 h

• N[C@@]1(C(=O)O)CS(=O)(=O)[C@H]2[C@H](C(=O)O)[C@H]21 [LY404039] = > 500 ng/mL

----------
Biological target: Metabotropic glutamate receptor 1 (Homo sapiens) (UniProt Q13255)
Sequence (Q13255 19-1194 limits assumed): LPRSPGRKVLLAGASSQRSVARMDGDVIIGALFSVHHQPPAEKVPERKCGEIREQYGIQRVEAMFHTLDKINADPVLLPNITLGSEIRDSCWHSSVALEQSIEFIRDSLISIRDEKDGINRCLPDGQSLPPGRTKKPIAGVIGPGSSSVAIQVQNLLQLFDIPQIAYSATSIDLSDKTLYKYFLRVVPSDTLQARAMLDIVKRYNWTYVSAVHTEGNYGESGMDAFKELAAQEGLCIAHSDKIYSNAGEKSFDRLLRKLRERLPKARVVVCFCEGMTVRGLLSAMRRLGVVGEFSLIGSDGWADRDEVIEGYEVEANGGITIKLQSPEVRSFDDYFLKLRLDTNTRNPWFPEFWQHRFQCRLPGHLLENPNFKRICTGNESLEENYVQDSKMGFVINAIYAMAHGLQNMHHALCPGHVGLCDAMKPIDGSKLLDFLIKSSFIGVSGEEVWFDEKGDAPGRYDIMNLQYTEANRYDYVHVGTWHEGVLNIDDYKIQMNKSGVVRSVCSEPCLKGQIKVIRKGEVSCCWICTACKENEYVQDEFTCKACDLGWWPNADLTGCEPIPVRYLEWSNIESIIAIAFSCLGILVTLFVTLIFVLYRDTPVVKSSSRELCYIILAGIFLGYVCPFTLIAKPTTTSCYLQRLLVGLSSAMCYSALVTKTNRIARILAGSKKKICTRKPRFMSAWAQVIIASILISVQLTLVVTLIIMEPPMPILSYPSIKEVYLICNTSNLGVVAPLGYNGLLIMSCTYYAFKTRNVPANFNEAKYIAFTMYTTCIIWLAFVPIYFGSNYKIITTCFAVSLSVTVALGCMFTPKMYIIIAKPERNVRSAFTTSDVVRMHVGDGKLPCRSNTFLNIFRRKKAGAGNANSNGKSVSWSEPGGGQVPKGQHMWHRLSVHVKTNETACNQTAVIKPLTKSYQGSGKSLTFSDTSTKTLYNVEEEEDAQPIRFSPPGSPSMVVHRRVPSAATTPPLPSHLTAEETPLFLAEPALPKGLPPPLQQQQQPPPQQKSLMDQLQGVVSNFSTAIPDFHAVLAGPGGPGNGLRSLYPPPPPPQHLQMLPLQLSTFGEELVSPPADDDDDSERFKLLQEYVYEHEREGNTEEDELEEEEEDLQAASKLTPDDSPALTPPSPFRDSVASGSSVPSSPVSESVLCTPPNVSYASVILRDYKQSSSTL
Test: Antagonist activity against human mGluR1a assessed as effect on cAMP production in RGT cells upto 100 uM
Format: functional, cell-based
Activity calls are given as the source filed them. The calls are words filed in the database; no cut-off is given here.
recordedEndpoint: Activity

• N[C@@]1(C(=O)O)C[S+]([O-])[C@H]2[C@H](C(=O)O)[C@H]21 (stereo in doubt; (-)-11) = inactive
• N[C@@]1(C(=O)O)CO[C@H]2[C@H](C(=O)O)[C@H]21 = inactive
• N[C@@]1(C(=O)O)CC[C@H]2[C@H](C(=O)O)[C@H]21 = inactive

----------
Assay: AUC (0-24h) in Fischer 344 rat at 10 mg/kg, po
Assay type: ADME, organism-based, Plasma
Design: time < 24 hr, dose 10 mg/kg, route oral
Settings: Fischer 344, rat, plasma
recordedEndpoint: AUC(0-t) at 24 h (ng·h/mL)

• N[C@@]1(C(=O)O)CS(=O)(=O)[C@H]2[C@H](C(=O)O)[C@H]21 [LY404039] = 7200

----------
Target: Metabotropic glutamate receptor 3 (Homo sapiens, UniProt Q14832)
Assay: Displacement of [3H]LY341495 from human recombinant mGluR3 in RGT cells
pKi: −log10 of the molar value.
recordedEndpoint: pKi

- N[C@@]1(C(=O)O)C[S+]([O-])[C@H]2[C@H](C(=O)O)[C@H]21 (stereo in doubt; (+)-11): 9.77
- N[C@@]1(C(=O)O)CS(=O)(=O)[C@H]2[C@H](C(=O)O)[C@H]21: 7.04
- N[C@@]1(C(=O)O)C[S+]([O-])[C@H]2[C@H](C(=O)O)[C@H]21 (stereo in doubt; (-)-10): 6.35

----------
Target: Metabotropic glutamate receptor 2 (Homo sapiens)
Sequence (Q14416 whole entry): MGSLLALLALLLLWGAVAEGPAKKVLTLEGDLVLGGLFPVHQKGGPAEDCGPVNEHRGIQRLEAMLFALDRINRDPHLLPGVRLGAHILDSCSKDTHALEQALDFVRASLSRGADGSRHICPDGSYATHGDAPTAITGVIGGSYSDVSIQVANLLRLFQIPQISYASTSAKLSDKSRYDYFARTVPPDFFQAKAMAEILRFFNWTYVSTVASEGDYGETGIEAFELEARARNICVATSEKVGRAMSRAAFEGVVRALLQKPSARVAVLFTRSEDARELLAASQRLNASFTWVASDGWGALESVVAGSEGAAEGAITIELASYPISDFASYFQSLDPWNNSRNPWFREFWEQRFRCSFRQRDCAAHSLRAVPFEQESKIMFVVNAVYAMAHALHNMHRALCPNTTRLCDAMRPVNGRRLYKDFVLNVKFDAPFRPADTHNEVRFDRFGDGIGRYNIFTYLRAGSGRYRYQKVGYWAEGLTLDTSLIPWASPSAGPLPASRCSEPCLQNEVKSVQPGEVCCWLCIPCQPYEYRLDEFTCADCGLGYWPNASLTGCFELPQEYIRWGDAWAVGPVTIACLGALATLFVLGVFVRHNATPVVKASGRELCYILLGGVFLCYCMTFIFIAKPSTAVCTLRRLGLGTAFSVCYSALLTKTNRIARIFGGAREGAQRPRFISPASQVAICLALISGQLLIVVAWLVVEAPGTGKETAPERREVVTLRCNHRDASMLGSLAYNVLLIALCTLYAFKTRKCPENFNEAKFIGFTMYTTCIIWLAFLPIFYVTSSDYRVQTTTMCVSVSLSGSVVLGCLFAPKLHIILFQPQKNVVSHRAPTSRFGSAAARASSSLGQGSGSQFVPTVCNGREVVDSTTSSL
Experiment: Displacement of [3H]LY341495 from human recombinant mGluR2 in RGT cells
Format: cell-based
pKi: −log10 of the molar value.
recordedEndpoint: pKi

* N[C@@]1(C(=O)O)C[S+]([O-])[C@H]2[C@H](C(=O)O)[C@H]21 (stereo in doubt; (-)-10) | 6.29

----------
Assay: Plasma concentration in Fischer 344 rat at 10 mg/kg, po after 16 hrs
Assay type: ADME, organism-based
Parameters: dose 10 mg/kg, route oral
recordedEndpoint: concentration at 16 h (ng/mL)

• N[C@@]1(C(=O)O)C[S+]([O-])[C@H]2[C@H](C(=O)O)[C@H]21 (stereo in doubt; (+)-11) = 34

----------
Biological target: Metabotropic glutamate receptor 7 (Homo sapiens) (UniProt Q14831)
Sequence (Q14831 whole entry): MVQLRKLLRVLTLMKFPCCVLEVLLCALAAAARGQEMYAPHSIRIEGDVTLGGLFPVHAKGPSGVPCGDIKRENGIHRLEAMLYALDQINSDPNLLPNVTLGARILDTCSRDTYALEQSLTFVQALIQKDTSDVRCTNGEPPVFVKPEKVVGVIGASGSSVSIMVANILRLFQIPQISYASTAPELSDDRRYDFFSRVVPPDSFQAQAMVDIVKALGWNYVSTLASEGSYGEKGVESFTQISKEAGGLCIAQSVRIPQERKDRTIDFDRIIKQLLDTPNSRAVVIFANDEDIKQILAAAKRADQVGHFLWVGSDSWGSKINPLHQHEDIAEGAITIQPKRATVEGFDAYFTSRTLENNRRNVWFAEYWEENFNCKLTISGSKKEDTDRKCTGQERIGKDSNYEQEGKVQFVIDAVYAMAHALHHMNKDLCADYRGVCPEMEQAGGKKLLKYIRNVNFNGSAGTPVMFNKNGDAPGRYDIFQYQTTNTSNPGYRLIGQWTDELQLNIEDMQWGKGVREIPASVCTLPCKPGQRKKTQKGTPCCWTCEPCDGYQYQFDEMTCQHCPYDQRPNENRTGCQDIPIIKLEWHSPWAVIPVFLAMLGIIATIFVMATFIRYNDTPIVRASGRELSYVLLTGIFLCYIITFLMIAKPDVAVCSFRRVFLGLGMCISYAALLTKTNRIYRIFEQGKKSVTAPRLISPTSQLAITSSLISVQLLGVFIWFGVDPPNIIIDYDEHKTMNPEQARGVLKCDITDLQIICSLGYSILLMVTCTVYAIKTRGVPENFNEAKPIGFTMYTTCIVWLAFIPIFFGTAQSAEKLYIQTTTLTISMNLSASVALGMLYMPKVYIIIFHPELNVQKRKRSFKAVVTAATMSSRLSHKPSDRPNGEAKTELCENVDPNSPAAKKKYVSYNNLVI
Assay: Antagonist activity against human mGluR7a assessed as effect on cAMP production in RGT cells upto 100 uM
Type: functional, cell-based
Active and inactive are the calls of the source. The calls are words filed in the database; no cut-off is given here.
recordedEndpoint: Activity

* N[C@@]1(C(=O)O)C[S+]([O-])[C@H]2[C@H](C(=O)O)[C@H]21 (stereo in doubt; (-)-10) | inactive
* N[C@@]1(C(=O)O)C[S+]([O-])[C@H]2[C@H](C(=O)O)[C@H]21 (stereo in doubt; (+)-11) | inactive
* N[C@@]1(C(=O)O)C[S+]([O-])[C@H]2[C@H](C(=O)O)[C@H]21 (stereo in doubt; (-)-11) | inactive
* N[C@@]1(C(=O)O)CS[C@H]2[C@H](C(=O)O)[C@H]21 | inactive
* N[C@@]1(C(=O)O)CC[C@H]2[C@H](C(=O)O)[C@H]21 | inactive
* N[C@@]1(C(=O)O)CS(=O)(=O)[C@H]2[C@H](C(=O)O)[C@H]21 | inactive
* N[C@@]1(C(=O)O)CO[C@H]2[C@H](C(=O)O)[C@H]21 | inactive

----------
Parameter: Tmax. Scope: all listed entries.
Assay: Tmax in Fischer 344 rat at 10 mg/kg, po
Type: ADME, organism-based
Design: dose 10 mg/kg, route oral
Conditions: Fischer 344, rat, in vivo
recordedEndpoint: Tmax (min)

* N[C@@]1(C(=O)O)CS(=O)(=O)[C@H]2[C@H](C(=O)O)[C@H]21 [LY404039] | 60
* N[C@@]1(C(=O)O)C[S+]([O-])[C@H]2[C@H](C(=O)O)[C@H]21 (stereo in doubt; (+)-11) | 30

----------
Tested on: Rattus norvegicus
Assay: Cmax in Fischer 344 rat at 10 mg/kg, iv
Format: ADME, organism-based
Set-up: dose 10 mg/kg, route intravenous
Conditions: in vivo
recordedEndpoint: Cmax (µg/mL)

• N[C@@]1(C(=O)O)C[S+]([O-])[C@H]2[C@H](C(=O)O)[C@H]21 (stereo in doubt; (+)-11) = 29

----------
Assay: Plasma concentration in Fischer 344 rat at 10 mg/kg, po after 8 hrs
Assay type: ADME, organism-based
Parameters: dose 10 mg/kg, route oral
recordedEndpoint: concentration at 8 h (ng/mL)

- N[C@@]1(C(=O)O)C[S+]([O-])[C@H]2[C@H](C(=O)O)[C@H]21 (stereo in doubt; (+)-11): 202

----------
Catalogue of bioavailability readings, one per entry.
Test: Oral bioavailability in Fischer 344 rat at 10 mg/kg, po
Assay type: ADME, organism-based
Conditions: in vivo
recordedEndpoint: bioavailability

• N[C@@]1(C(=O)O)CS(=O)(=O)[C@H]2[C@H](C(=O)O)[C@H]21 [LY404039] = 63%
• N[C@@]1(C(=O)O)C[S+]([O-])[C@H]2[C@H](C(=O)O)[C@H]21 (stereo in doubt; (+)-11) = 100%

----------
System: Rattus norvegicus
Assay: Cmax in Fischer 344 rat at 2.5 mg/kg, iv
Format: ADME, organism-based
Set-up: dose 2.5 mg/kg, route intravenous
Details: in vivo
recordedEndpoint: Cmax (ng/mL)

• N[C@@]1(C(=O)O)CS(=O)(=O)[C@H]2[C@H](C(=O)O)[C@H]21 = 7500

// provenance: ChEMBL document CHEMBL1139833
